Molecular target: T1, Human GPC3 (2119-GP; R&D systems), biotinylated (human, UniProt P51654 25-559, biotinylated using standard NHS chemistry)
T1 construct: Bought protein; also called human Glypican-3
T1 sequence (P51654 25-559 limits assumed): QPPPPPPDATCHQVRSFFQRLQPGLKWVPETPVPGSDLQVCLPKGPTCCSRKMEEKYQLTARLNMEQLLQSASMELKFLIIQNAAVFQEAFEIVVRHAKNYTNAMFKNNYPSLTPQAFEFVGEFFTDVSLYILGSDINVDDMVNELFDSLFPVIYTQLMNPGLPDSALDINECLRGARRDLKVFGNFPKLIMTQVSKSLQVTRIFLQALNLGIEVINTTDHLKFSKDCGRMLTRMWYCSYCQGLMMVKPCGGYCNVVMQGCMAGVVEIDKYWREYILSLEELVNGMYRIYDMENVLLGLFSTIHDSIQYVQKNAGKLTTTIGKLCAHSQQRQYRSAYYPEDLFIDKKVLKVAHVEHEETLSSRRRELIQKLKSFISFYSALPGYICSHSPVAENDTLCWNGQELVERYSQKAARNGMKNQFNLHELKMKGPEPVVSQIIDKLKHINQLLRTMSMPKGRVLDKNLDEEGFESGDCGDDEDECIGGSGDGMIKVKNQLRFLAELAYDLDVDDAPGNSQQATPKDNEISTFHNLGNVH
Test: SPR (Biacore T200), biotinylated GPC3 captured on chip, mutein in flow
Measured Kd accompanies every entry in the list below.
Field: value (include unit after the number)

Previously resolved entries follow.
lipocalin mutein of SEQ ID NO: 11 (designed binder, hNGAL (Lcn2) mutein; also called optimized GPC3 specific lipocalin mutein) QDSTSDLIPAPPLSKVPLQQNFQDNQFQGKWYVVGRAGNVALREDKDPPKMRATIYELKEDKSYDVTAVRFARKKCLYSIGTFVPGSQPGEFTLGRIKSEPGYTANLVRVVSTNYNQHAMVFFKEVYQNREIFFIILYGRTKELTSELKENFIRFSKSLGLPENHIVFPVPIDQCIDGSAWSHPQFEK	0.027 nM
lipocalin mutein of SEQ ID NO: 8 (designed binder, hNGAL (Lcn2) mutein; also called optimized GPC3 specific lipocalin mutein) QDSTSDLIPAPPLSKVPLQQNFQDNQFQGKWYVVGRAGNVGLREDKDPPKMWATIYELKEDKSYDVTNVRFARKKCLYSIGTFVPGSQPGEFTLGQIKSEPGNTANLVRVVSTNYNQHAMVFFKEVYQNREIFFIILYGRTKELTSELKENFIRFSKSLGLPENHIVFPVPIDQCIDGSAWSHPQFEK	0.068 nM
lipocalin mutein of SEQ ID NO: 14 (designed binder, hNGAL (Lcn2) mutein; also called optimized GPC3 specific lipocalin mutein) QDSTSDLIPAPPLSKVPLQQNFQDNQFQGKWYVVGRAGNVGLREDKDPPKMWATIYELKEDKSYDVTNVRFAGKKVKYTIGTFVPGSQPGEFTLGQIKSEPGNTATLVRVVSTNYNQHAMVFFKEVYQNREIFFITLYGRTKELTSELKENFIRFSKSLGLPENHIVFPVPIDQAIDGSAWSHPQFEK	0.819 nM

The binder listed as lipocalin mutein of SEQ ID NO: 5 (designed binder, hNGAL (Lcn2) mutein; also called optimized GPC3 specific lipocalin mutein) QDSTSDLIPAPPLSKVPLQQNFQDNQFQGKWYVVGVAGNALLREDKDPLKMRATIYELKEDKSYDVTVVSFWRKKCHYKIGTFVPGSQPGEFTLGDIKSGPGQTSNLVRVVSTNYNQHAMVFFKEVRQNREWFAITLYGRTKELTSELKENFIRFSKSLGLPENHIVFPVPIDQCIDGSAWSHPQFEK has a reported Kd of 0.119 nM

The binder listed as lipocalin mutein of SEQ ID NO: 7 (designed binder, hNGAL (Lcn2) mutein; also called optimized GPC3 specific lipocalin mutein) QDSTSDLIPAPPLSKVPLQQNFQDNQFQGKWYVVGVAGNGMLREDKDPLKMRATIYELKEDKSYDVTSVAFRNKKCHYKIGTFVPGSQPGEFTLGQIKSGPGETSNLVRVVSTNYNQHAMVFFKEVRQNREWFFITLYGRTKELTSELKENFIRFSKSLGLPENHIVFPVPIDQCIDGSAWSHPQFEK has a reported Kd of 0.097 nM

The binder listed as lipocalin mutein of SEQ ID NO: 4 (designed binder, hNGAL (Lcn2) mutein; also called non-optimized GPC3-specific Lcn2 mutein; mother clone) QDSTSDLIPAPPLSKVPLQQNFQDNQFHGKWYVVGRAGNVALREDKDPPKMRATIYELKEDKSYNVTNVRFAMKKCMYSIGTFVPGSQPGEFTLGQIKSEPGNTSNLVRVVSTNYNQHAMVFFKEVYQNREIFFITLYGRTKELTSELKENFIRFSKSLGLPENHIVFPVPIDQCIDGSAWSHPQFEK has a reported Kd of 0.877 nM
